Reference source: patent US20260325685A1

target-or-test-system: human CA-IX (Homo sapiens)
Construct: purchased Acro CA9-H82E3
assay-procedure: Surface Plasmon Resonance (SPR) binding kinetics to recombinant human CA-IX (Biacore 8K, single-cycle kinetics, 1:1 binding model)
experimental-conditions: Chelated Metal: Lu-175; SPR, 25° C., pH 7.4; read-out: CAIX KD
Procedure: G1. Surface Plasmon Resonance Assay Conditions for hCA-IX and hCA-XII Surface Plasmon Resonance (SPR) experiments were conducted on a Biacore 8K instrument (Cytiva, Marlborough, MA) to determine the binding kinetics of the compound to recombinant human CA-IX (Acro, CA9-H82E3) and CA-XII (Creative BioMart, CA12-261H) proteins. […]
reported-property: Kd

The cases that follow already have their Kd on record.
NS(=O)(=O)c1nnc(NC(=O)C23CCC(c4cn(CCNC(=O)[C@@H]5CN(C(=O)CN6CCN(CC(=O)O)CCN(CC(=O)O)CCN(CC(=O)O)CC6)CCN5C(=O)CNC(=O)C5(C(=O)O)CCN(C(=O)CCC6CCCCC6)CC5)nn4)(CC2)CC3)s1.[Lu+3] [Compound 107.10]; < 1 nM
NS(=O)(=O)c1nnc(NC(=O)C23CC(c4cn(CCNC(=O)[C@@H]5CN(C(=O)CN6CCN(CC(=O)O)CCN(CC(=O)O)CCN(CC(=O)O)CC6)CCN5C(=O)C[C@H](NC(=O)C[C@H](NC(=O)c5coc(C(F)(F)F)n5)C(=O)O)C(=O)O)nn4)(C2)C3)s1.[Lu+3] [Compound 109.17]; 2.5 to 10 nM
CC(CCC(=O)N[C@@H](CC(=O)N[C@@H](CCC(=O)N1CCN(C(=O)CN2CCN(CC(=O)O)CCN(CC(=O)O)CCN(CC(=O)O)CC2)C[C@@H]1Cn1cc(C23CC(C(=O)Nc4nnc(S(N)(=O)=O)s4)(C2)C3)nn1)C(=O)O)C(=O)O)(c1ccc(O)cc1)c1ccc(O)cc1.[Lu+3] [Compound 107.14]; < 1 nM

We now examine a further compound.
// query Please report the recorded Kd for NS(=O)(=O)c1nnc(NC(=O)C23CC(c4cn(CCNC(=O)[C@@H]5CN(C(=O)CN6CCN(CC(=O)O)CCN(CC(=O)O)CCN(CC(=O)O)CC6)CCN5C(=O)CNC(=O)C5(C(=O)O)CCN(C(=O)c6n[nH]c7ccccc67)CC5)nn4)(C2)C3)s1.[Lu+3] [Compound 112.10] .
// result < 1 nM

###

Measured Kd of individual entries
target-or-test-system: human CA-IX (Homo sapiens)
Construct: purchased Acro CA9-H82E3
assay-procedure: Surface Plasmon Resonance (SPR) binding kinetics to recombinant human CA-IX (Biacore 8K, single-cycle kinetics, 1:1 binding model)
experimental-conditions: read-out: CAIX KD; Chelated Metal: Lu-175; SPR, 25° C., pH 7.4

Answered cases to consult:
CC(CCCC(=O)N1CCC(C(N)=O)(C(=O)NCC(=O)N2CCN(C(=O)CCOCCOCCOCCOCCN(CCOCCOCCOCCOCCC(=O)N3CCN(C(=O)CNC(=O)C4(C(N)=O)CCN(C(=O)CCCC(C)(c5ccc(O)cc5)c5ccc(O)cc5)CC4)[C@H](C(=O)NCCn4cc(C56CC(C(=O)Nc7nnc(S(N)(=O)=O)s7)(C5)C6)nn4)C3)C(=O)CNC(=O)CN3CCN(CC(=O)O)CCN(CC(=O)O)CCN(CC(=O)O)CC3)C[C@H]2C(=O)NCCn2cc(C34CC(C(=O)Nc5nnc(S(N)(=O)=O)s5)(C3)C4)nn2)CC1)(c1ccc(O)cc1)c1ccc(O)cc1.[Lu+3] [Compound 131]; < 1 nM
CC(CCC(=O)N[C@@H](CC(=O)N[C@@H](CC(=O)N1CCN(C(=O)CN2CCN(CC(=O)O)CCN(CC(=O)O)CCN(CC(=O)O)CC2)CC1CCCCn1cc(CCCC(=O)Nc2nnc(S(N)(=O)=O)s2)nn1)C(=O)O)C(=O)O)(c1ccc(O)cc1)c1ccc(O)cc1.[Lu+3] (stereo partly drawn) [Compound 104]; 1 to 2.5 nM

// query If you can, please state the reported Kd value of CC(CCC(=O)N[C@@H](CC(=O)N[C@@H](CC(=O)NC1(CCCCn2cc(CCCC(=O)Nc3nnc(S(N)(=O)=O)s3)nn2)CCN(C(=O)CN2CCN(CC(=O)O)CCN(CC(=O)O)CCN(CC(=O)O)CC2)CC1)C(=O)O)C(=O)O)(c1ccc(O)cc1)c1ccc(O)cc1.[Lu+3] [Compound 116] .
// result 1 to 2.5 nM

// query Fill blank: measured Kd of the compound CC(CCC(=O)N[C@@H](CC(=O)N[C@@H](CC(=O)N1CCN(C(=O)CN2CCN(CC(=O)O)CCN(CC(=O)O)CCN(CC(=O)O)CC2)C[C@H]1C(=O)NCC(=O)N1CCC2(CC1)CC(C(=O)Nc1nnc(S(N)(=O)=O)s1)C2)C(=O)O)C(=O)O)(c1ccc(O)cc1)c1ccc(O)cc1.[Lu+3] [Compound 119] is ____.
// result 2.5 to 10 nM

// query # Kd lookup, item NS(=O)(=O)c1nnc(NC(=O)C23CC(c4cn(C[C@H]5CN(C(=O)CN6CCN(CC(=O)O)CCN(CC(=O)O)CCN(CC(=O)O)CC6)CCN5c5nccc(NCCc6n[nH]c7ccccc67)n5)nn4)(C2)C3)s1.[Lu+3] [Compound 115]
// result 2.5 to 10 nM

// query Any idea what its Kd is? The compound is NS(=O)(=O)c1nnc(NC(=O)C23CCC(c4cn(CCNC(=O)[C@@H]5CN(C(=O)CN6CCN(CC(=O)O)CCN(CC(=O)O)CCN(CC(=O)O)CC6)CCN5C(=O)CC[C@H](NC(=O)C[C@H](NCc5ccccc5)C(=O)O)C(=O)O)nn4)(CC2)CC3)s1.[Lu+3] [Compound 110]
// result < 1 nM

// query # lookup: Kd of CC(CCC(=O)N[C@@H](CC(=O)N[C@@H](CC(=O)NC1(C(=O)NCCn2cc(C34CC(C(=O)Nc5nnc(S(N)(=O)=O)s5)(C3)C4)nn2)CCN(C(=O)CN2CCN(CC(=O)O)CCN(CC(=O)O)CCN(CC(=O)O)CC2)CC1)C(=O)O)C(=O)O)(c1ccc(O)cc1)c1ccc(O)cc1.[Lu+3] [Compound 117]
// result 1 to 2.5 nM

// query Need Kd of CC(CCCC(=O)N1CCC(C(N)=O)(C(=O)NCC(=O)NC2(C(=O)N[C@@H](Cn3cc(C45CC(C(=O)Nc6nnc(S(N)(=O)=O)s6)(C4)C5)nn3)C(=O)O)CCN(C(=O)CN3CCN(CC(=O)O)CCN(CC(=O)O)CCN(CC(=O)O)CC3)CC2)CC1)(c1ccc(O)cc1)c1ccc(O)cc1.[Lu+3] [Compound 134] , thanks.
// result < 1 nM

// query I am curious: what Kd value has been reported for NS(=O)(=O)c1nnc(NC(=O)C23CC(c4cn(CCNC(=O)[C@@H]5CN(C(=O)CN6CCN(CC(=O)O)CCN(CC(=O)O)CCN(CC(=O)O)CC6)CCN5C(=O)C[C@H](NC(=O)C[C@H](NC(=O)c5cccc(C6CC6)c5)C(=O)O)C(=O)O)nn4)(C2)C3)s1.[Lu+3] [Compound 109] ?
// result < 1 nM

// query Fill in the blank: the reported Kd of CC(CCC(=O)N[C@@H](CC(=O)N[C@@H](CC(=O)N[C@@H](CCCCN1CCN(c2ccc(C(=O)Nc3nnc(S(N)(=O)=O)s3)cc2)CC1)C(=O)NCCOCCOCCNC(=O)CN1CCN(CC(=O)O)CCN(CC(=O)O)CCN(CC(=O)O)CC1)C(=O)O)C(=O)O)(c1ccc(O)cc1)c1ccc(O)cc1.[Lu+3] [Compound 121] is ____.
// result < 1 nM

// query Fill in the blank: the reported Kd of CC(CCC(=O)N[C@@H](CC(=O)N[C@@H](CC(=O)N1CCN(C(=O)[C@H](CCC(=O)NCCOCCOCCOCCOCCOCCOCCOCCOCCC(=O)N[C@@H](CCCCNC(=O)CCCc2ccc(I)cc2)C(=O)O)NC(=O)CN2CCN(CC(=O)O)CCN(CC(=O)O)CCN(CC(=O)O)CC2)C[C@H]1C(=O)NCCn1cc(C23CC(C(=O)Nc4nnc(S(N)(=O)=O)s4)(C2)C3)nn1)C(=O)O)C(=O)O)(c1ccc(O)cc1)c1ccc(O)cc1.[Lu+3] (racemic) [Compound 125] is ____.
// result 1 to 2.5 nM

// query Can you share its Kd? I mean this compound: CC(CCC(=O)N1CCC[C@H]1C(=O)N[C@@H](CC(=O)N1CCN(C(=O)CN2CCN(CC(=O)O)CCN(CC(=O)O)CCN(CC(=O)O)CC2)C[C@@H]1C(=O)NCCn1cc(C23CC(C(=O)Nc4nnc(S(N)(=O)=O)s4)(C2)C3)nn1)C(=O)O)(c1ccc(O)cc1)c1ccc(O)cc1.[Lu+3] [Compound 108]
// result 1 to 2.5 nM
